- assay system: melatonin receptors
- experiment description: Test of binding to melatonin receptors
assay readout: pKd
Note on pKd: it is the negative log10 of concentration, concentration in mol/L.

Input line: So what does the record say about pKd for COc1ccc2[nH]cc(CCNC(C)=O)c2c1 [melatonin] ?
Output line: 10.20
